System: HCT-116
Assay: Antiproliferative activity against human HCT116 cells in presence of 5-FU after 48 hrs by MTT assay
Settings: HCT-116, 48 h
attribute.measured: pIC50
Friendly reminder that pIC50 comes from taking -log10 of the concentration in mol/L.

Query: So what pIC50 did "CC(C)C[C@H](NC(=O)[C@@H](O)[C@H](N)Cc1ccccc1)C(=O)O" get with HCT-116?
Response: 4.36

----------
Tested on: PLC-PRF-5
Experiment: Antiproliferative activity against human PLC/PRF/5 cells in presence of 5-FU after 48 hrs by MTT assay
Assay type: functional, cell-based
Settings: PLC-PRF-5, 48 h
attribute.measured: IC50 (µM)
Write it as a number; the unit µM goes unstated.

Query: So what IC50 did "CC(C)C[C@H](NC(=O)[C@@H](O)[C@H](N)Cc1ccccc1)C(=O)O" get with PLC-PRF-5?
Response: 22.8

Reference for the values: ChEMBL document CHEMBL4138213
